meta.source: the supplement of paper PMC10849652

- Target Under Test: ZMYM3 (UniProt Q14202)
- Sequence (Q14202 whole entry, looked up): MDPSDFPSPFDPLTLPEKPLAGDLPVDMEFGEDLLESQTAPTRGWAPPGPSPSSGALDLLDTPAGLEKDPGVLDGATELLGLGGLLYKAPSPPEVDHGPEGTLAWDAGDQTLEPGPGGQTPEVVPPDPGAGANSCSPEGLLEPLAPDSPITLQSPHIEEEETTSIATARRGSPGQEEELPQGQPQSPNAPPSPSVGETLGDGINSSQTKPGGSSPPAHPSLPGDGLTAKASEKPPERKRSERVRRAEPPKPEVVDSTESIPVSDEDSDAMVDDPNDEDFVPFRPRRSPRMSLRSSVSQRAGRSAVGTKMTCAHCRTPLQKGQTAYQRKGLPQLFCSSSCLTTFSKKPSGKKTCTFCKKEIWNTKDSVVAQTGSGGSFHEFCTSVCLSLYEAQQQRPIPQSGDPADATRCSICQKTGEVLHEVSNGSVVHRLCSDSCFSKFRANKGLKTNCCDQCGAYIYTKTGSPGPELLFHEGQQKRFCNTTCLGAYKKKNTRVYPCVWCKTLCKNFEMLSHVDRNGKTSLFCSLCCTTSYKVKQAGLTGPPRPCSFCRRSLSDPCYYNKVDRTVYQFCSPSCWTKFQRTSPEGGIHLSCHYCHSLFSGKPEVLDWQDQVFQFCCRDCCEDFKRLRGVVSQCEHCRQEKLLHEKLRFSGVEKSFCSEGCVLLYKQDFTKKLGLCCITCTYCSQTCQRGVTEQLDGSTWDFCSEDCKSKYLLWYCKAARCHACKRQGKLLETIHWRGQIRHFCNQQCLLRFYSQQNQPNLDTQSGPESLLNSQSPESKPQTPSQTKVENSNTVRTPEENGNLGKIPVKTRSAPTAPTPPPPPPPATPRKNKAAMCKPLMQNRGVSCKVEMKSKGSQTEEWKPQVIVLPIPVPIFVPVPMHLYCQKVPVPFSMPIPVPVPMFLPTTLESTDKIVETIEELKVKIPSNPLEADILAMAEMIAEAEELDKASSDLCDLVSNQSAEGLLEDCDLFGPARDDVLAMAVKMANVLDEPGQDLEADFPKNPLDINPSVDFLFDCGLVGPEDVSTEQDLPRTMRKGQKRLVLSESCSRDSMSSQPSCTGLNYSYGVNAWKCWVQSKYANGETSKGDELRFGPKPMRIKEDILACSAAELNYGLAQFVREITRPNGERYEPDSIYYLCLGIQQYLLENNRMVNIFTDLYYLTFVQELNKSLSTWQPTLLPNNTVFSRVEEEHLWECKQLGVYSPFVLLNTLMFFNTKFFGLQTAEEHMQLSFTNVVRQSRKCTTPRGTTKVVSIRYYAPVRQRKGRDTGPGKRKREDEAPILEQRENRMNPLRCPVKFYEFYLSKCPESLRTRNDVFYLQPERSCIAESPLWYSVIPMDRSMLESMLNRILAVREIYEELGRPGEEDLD
- Experiment Summary: log2 fold change, soluble protein after heating vs DMSO (PISA); higher = thermal stabilisation; K562 cells, 10 uM, 30 min; active = over 0.2 and 3.5 SD of the protein, either way, in both replicates (recomputed)
Targets with a hit are over-represented here; the source holds about 7,900 in all. About 0.6% of all pairs of compound and target were hits.
The reply should be one of these categories: active, inactive

The following compounds have reported results that may help.
chem_smiles=C[C@@H](N)c1ccc(C(=O)Nc2ccnc3[nH]ccc23)cc1 qualitative_label=inactive
chem_smiles=C#Cc1cccc(Nc2ncnc3cc(OCCOC)c(OCCOC)cc23)c1 qualitative_label=inactive
chem_smiles=COc1cc(C(=O)O)ccc1NC(=O)[C@@H]1N[C@@H](CC(C)(C)C)[C@](C#N)(c2ccc(Cl)cc2F)[C@H]1c1cccc(Cl)c1F qualitative_label=inactive

Which outcome was assigned to `O=C1NC(=O)/C(=C\c2ccc3nccnc3c2)S1` in this test?
inactive

---

- Target Under Test: ZNF277 (UniProt Q9NRM2)
- Sequence (Q9NRM2 whole entry, looked up): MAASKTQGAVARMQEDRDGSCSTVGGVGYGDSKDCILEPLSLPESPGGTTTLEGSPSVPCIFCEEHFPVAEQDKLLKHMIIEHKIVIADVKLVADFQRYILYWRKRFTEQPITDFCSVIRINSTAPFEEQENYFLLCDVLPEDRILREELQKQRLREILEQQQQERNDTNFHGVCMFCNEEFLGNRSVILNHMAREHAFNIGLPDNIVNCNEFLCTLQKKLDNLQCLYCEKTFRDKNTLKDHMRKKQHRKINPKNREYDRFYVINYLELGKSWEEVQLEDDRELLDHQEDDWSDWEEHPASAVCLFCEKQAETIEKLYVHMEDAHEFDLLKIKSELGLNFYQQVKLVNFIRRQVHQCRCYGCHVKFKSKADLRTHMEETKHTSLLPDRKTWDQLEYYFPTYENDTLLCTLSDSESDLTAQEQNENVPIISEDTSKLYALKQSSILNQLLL
- Experiment Summary: log2 fold change, soluble protein after heating vs DMSO (PISA); higher = thermal stabilisation; K562 cells, 10 uM, 30 min; active = over 0.2 and 3.5 SD of the protein, either way, in both replicates (recomputed)
Of roughly 7,900 targets only a part is listed; those with a hit were picked by preference. About 0.6% of all pairs of compound and target were hits.
Result Type: log2 fold change

Study these solved cases before continuing.
compound="CC1=C(C(=O)Nc2cc3cn[nH]c3cc2F)C(c2ccc(C(F)(F)F)cc2)CC(=O)N1 (configuration not stated)" target_under_test="ZNF277 (UniProt Q9NRM2)" result="-0.009 (inactive)"
compound=Cc1ccc(NC(=O)c2cccc(N(C)C)c2)cc1NC(=O)c1ccc(O)cc1 target_under_test="ZNF277 (UniProt Q9NRM2)" result="-0.097 (inactive)"
compound=CC(C)C[C@@H](C=O)NC(=O)[C@H](CC(C)C)NC(=O)[C@H](CC(C)C)NC(=O)OCc1ccccc1 target_under_test="ZNF277 (UniProt Q9NRM2)" result="0.137 (inactive)"
compound=COc1cccc2cc(-c3nc([C@H]4CC[C@H](C(=O)O)CC4)n4ncnc(N)c34)[nH]c12 target_under_test="ZNF277 (UniProt Q9NRM2)" result="-0.24 (inactive)"
compound=COC(=O)[C@H](CCSC)NC(=O)c1ccc(NC[C@@H](N)CS)cc1-c1ccccc1 target_under_test="ZNF277 (UniProt Q9NRM2)" result="-0.047 (inactive)"

# return log2 fold change for each item in the list
1. O=C(CCCCCCNC(=O)c1cnc(N(c2ccccc2)c2ccccc2Cl)nc1)NO [citarinostat]
2. NC(=O)c1cnc(N[C@@H]2CCCC[C@@H]2N)nc1Nc1cccc(-n2nccn2)c1

1: 0.306 (inactive); 2: 0.067 (inactive)

---

Kindly state log2 fold change for each of the entries shown.
- Target Under Test: YWHAQ (UniProt P27348)
- Sequence (P27348 whole entry, looked up): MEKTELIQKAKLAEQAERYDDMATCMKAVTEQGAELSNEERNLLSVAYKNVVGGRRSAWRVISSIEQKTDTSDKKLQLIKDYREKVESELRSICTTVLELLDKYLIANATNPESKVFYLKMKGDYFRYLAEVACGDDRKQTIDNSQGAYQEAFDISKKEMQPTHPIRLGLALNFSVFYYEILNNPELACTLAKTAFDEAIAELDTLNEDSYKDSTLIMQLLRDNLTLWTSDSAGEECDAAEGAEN
- Experiment Summary: log2 fold change, soluble protein after heating vs DMSO (PISA); higher = thermal stabilisation; K562 cells, 10 uM, 30 min; active = over 0.2 and 3.5 SD of the protein, either way, in both replicates (recomputed)
Targets with a hit are over-represented here; the source holds about 7,900 in all. About 0.6% of all pairs of compound and target were hits.
Answers are plain numbers.

Study these solved cases before continuing.
chem_smiles=COc1cc(Nc2ncc3c(n2)-c2ccc(Cl)cc2C(c2c(F)cccc2OC)=NC3)ccc1C(=O)O target_under_test="YWHAQ (UniProt P27348)" recorded_number=-0.001
chem_smiles=CS(=O)(=O)N1CCN(Cc2cc3nc(-c4cccc5[nH]ncc45)nc(N4CCOCC4)c3s2)CC1 target_under_test="YWHAQ (UniProt P27348)" recorded_number=-0.142

# return log2 fold change for each item in the list
1. CC(C)C[C@@H](C=O)NC(=O)[C@H](CC(C)C)NC(=O)[C@H](CC(C)C)NC(=O)OCc1ccccc1
2. NC(=O)Nc1cc(-c2cccc(F)c2)sc1C(=O)N[C@H]1CCCNC1
3. CCN(CC)Cc1ccc2cc(COC(=O)Nc3ccc(C(=O)NO)cc3)ccc2c1
4. CCCc1cc(C)[nH]c(=O)c1CNC(=O)c1cc(-c2ccnc(N3CCN(C)CC3)c2)cc2c1cnn2C(C)C

[-0.184, 0.065, -0.039, 0.241]

# return log2 fold change for each item in the list
1. Cc1cn(-c2cc(NC(=O)c3ccc(C)c(Nc4nccc(-c5cccnc5)n4)c3)cc(C(F)(F)F)c2)cn1
2. O=C1NC(=O)C(c2cnc3ccccn23)=C1c1cn2c3c(cc(F)cc13)CN(C(=O)N1CCCCC1)CC2
3. C=CC(=O)N1CCC[C@@H](n2nc(-c3ccc(Oc4ccccc4)cc3)c3c(N)ncnc32)C1
4. C[C@@H]1COCCN1c1cc(C2(S(C)(=O)=O)CC2)nc(-c2cccc3[nH]ccc23)n1
5. COc1cc2nc(-c3cc(F)ccc3O)nc(N[C@@H]3CNC[C@H]3C(C)(C)O)c2cc1OC
6. CNCc1ccc(-c2[nH]c3cc(F)cc4c3c2CCNC4=O)cc1

0.018
-0.095
0.002
0.074
-0.148
-0.016

---

- Target Under Test: ZWILCH (UniProt Q9H900)
- Sequence (Q9H900 whole entry, looked up): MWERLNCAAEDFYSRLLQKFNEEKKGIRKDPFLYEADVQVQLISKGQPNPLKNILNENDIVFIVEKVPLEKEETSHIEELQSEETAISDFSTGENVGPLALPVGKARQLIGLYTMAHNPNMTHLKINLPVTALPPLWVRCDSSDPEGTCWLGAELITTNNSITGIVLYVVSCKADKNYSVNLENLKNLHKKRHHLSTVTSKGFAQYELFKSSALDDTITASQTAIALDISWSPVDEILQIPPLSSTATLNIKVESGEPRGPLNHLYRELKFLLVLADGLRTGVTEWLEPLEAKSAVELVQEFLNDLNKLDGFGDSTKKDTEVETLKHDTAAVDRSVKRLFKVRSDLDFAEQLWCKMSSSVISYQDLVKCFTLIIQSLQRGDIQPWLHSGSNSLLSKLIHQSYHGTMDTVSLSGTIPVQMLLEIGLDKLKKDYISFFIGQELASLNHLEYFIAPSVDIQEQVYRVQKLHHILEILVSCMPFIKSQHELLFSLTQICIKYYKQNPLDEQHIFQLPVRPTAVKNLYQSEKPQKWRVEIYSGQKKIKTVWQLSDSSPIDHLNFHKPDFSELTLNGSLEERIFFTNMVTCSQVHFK
- Experiment Summary: log2 fold change, soluble protein after heating vs DMSO (PISA); higher = thermal stabilisation; K562 cells, 10 uM, 30 min; active = over 0.2 and 3.5 SD of the protein, either way, in both replicates (recomputed)
About 7,900 targets were measured; listed, in parts, are those with a hit and a random draw of the rest. About 0.6% of all pairs of compound and target were hits.
Categorized via log2 fold change: lower (below -0.01), middle (-0.01 to below 0.02), upper (0.02 or more)

compound=COC(=O)[C@H](CCSC)NC(=O)c1ccc(NC[C@@H](N)CS)cc1-c1ccccc1 qualitative_label=lower
compound=NCC(=O)Nc1ccc(-n2nc(C(F)(F)F)cc2-c2ccc3c(ccc4ccccc43)c2)cc1 qualitative_label=lower
compound=NC1(c2ccc(-c3nc4ccn5c(=O)[nH]nc5c4cc3-c3ccccc3)cc2)CCC1 qualitative_label=lower
compound=Cc1ccc(NC(=O)c2cccc(N(C)C)c2)cc1NC(=O)c1ccc(O)cc1 qualitative_label=upper
compound=CCn1c(C(=O)N(C2CC2)C2CC2)cc2c3c(ncn3C)c(Nc3cc(C)n(C)n3)nc21 qualitative_label=upper
compound=Cc1nc(Nc2ncc(C(=O)Nc3c(C)cccc3Cl)s2)cc(N2CCN(CCO)CC2)n1 qualitative_label=lower

The entry to classify is `CCCS(=O)(=O)Nc1ccc(F)c(C(=O)c2c[nH]c3ncc(Cl)cc23)c1F` ; which class holds it?
middle

The entry to classify is `Cc1ccc2c(=O)c3ccccc3n(CCCN)c2c1C` ; which class holds it?
middle

The entry to classify is `CC(C)(O)CC(=O)NCCn1ccc2ncnc(Nc3ccc(Oc4cccc(C(F)(F)F)c4)c(Cl)c3)c21` ; which class holds it?
middle

The entry to classify is `Cc1ncc(-c2ccnc(Nc3ccc(S(C)(=O)=O)cc3)n2)n1C(C)C` ; which class holds it?
upper

The entry to classify is `CC(C)c1cnn2c(NCc3ccccc3)cc(NCCCCCCN)nc12` ; which class holds it?
lower

The entry to classify is `Cc1cccc(CC(=O)N2CCc3c2ccc(-c2cn(C)c4ncnc(N)c24)c3F)n1` ; which class holds it?
upper

The entry to classify is `Cc1ccc(NC(=O)c2cccc(C(C)(C)C#N)c2)cc1Nc1ccc2ncn(C)c(=O)c2c1` ; which class holds it?
middle

The entry to classify is `C[C@H](Nc1ncnc2nc[nH]c12)c1cc2cccc(Cl)c2c(=O)n1-c1ccccc1` ; which class holds it?
upper

The entry to classify is `Nc1ccccc1NC(=O)c1ccc(CNC(=O)OCc2cccnc2)cc1` ; which class holds it?
middle

The entry to classify is `COc1cc2ncnc(Nc3ccc(F)c(Cl)c3)c2cc1OCCCN1CCOCC1` ; which class holds it?
upper

The entry to classify is `CON(C)C(=O)N1N=C(c2cc(F)ccc2F)S[C@@]1(CCCN)c1ccccc1` ; which class holds it?
middle

The entry to classify is `Cc1cc(Nc2cc(N3CCN(C)CC3)nc(Sc3ccc(NC(=O)C4CC4)cc3)n2)n[nH]1` ; which class holds it?
upper

The entry to classify is `CC(C)(C)Cn1c(N)nc2ccc(-c3[nH]c(C(C)(C)C)nc3-c3ccc(F)cc3)nc21` ; which class holds it?
upper

The entry to classify is `CCn1cc(-c2ccnc3[nH]c(-c4cccc(CN(C)C)c4)cc23)c(-c2ccc(NC(=O)N(C)C)cc2)n1` ; which class holds it?
middle

---

- Target Under Test: ZNF239 (UniProt Q16600)
- Sequence (Q16600 whole entry, looked up): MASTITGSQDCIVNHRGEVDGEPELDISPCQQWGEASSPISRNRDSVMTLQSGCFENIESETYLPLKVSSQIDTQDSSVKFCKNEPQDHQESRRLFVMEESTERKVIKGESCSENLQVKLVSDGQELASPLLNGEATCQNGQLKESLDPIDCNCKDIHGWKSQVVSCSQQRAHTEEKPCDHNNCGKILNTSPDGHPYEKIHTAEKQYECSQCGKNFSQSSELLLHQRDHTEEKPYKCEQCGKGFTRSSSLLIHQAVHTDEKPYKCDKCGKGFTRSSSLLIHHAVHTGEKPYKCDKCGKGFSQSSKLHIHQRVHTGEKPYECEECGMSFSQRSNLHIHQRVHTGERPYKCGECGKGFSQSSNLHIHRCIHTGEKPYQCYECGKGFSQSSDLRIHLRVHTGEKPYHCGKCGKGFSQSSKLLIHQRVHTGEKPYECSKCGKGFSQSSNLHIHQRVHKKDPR
- Experiment Summary: log2 fold change, soluble protein after heating vs DMSO (PISA); higher = thermal stabilisation; K562 cells, 10 uM, 30 min; active = over 0.2 and 3.5 SD of the protein, either way, in both replicates (recomputed)
Targets with a hit are over-represented here; the source holds about 7,900 in all. About 0.6% of all pairs of compound and target were hits.
Result Type: log2 fold change
One number for each entry.

# return log2 fold change for each item in the list
1. CN1CCN(CCOc2cc(OC3CCOCC3)c3c(Nc4c(Cl)ccc5c4OCO5)ncnc3c2)CC1 [saracatinib]
2. O=C(Nc1nc2ccccc2n1CCN1CCOCC1)c1cccc([N+](=O)[O-])c1 [IRAK-1-4 Inhibitor I]
3. CCn1c(C(=O)N(C2CC2)C2CC2)cc2c3c(ncn3C)c(Nc3cc(C)n(C)n3)nc21
4. Cc1ccc(NC(=O)c2cccc(C(C)(C)C#N)c2)cc1Nc1ccc2ncn(C)c(=O)c2c1
5. C[C@H](Nc1ncnc2nc[nH]c12)c1cc2cccc(Cl)c2c(=O)n1-c1ccccc1 [duvelisib]
6. Fc1ccc(Cl)cc1-c1nc(Nc2ccncc2)c2nccnc2n1
7. C/C(=N\NC(=O)c1cccc(S(=O)(=O)N2CCOCC2)c1)c1cc(Cl)ccc1O
8. CC[C@@H]1C(=O)N(C)c2cnc(Nc3ccc(C(=O)N[C@H]4CC[C@H](N5CCN(CC6CC6)CC5)CC4)cc3OC)nc2N1C(C)C [volasertib]

[0.052, 0.154, 0.004, -0.002, 0.038, -0.333, 0.019, 0.084]

# return log2 fold change for each item in the list
1. C#Cc1cccc(Nc2ncnc3cc(OCCOC)c(OCCOC)cc23)c1 [erlotinib]
2. Cc1ccc(NC(=O)c2ccc(CN3CC[C@H](N(C)C)C3)c(C(F)(F)F)c2)cc1Nc1nccc(-c2cncnc2)n1 [bafetinib]
3. Cc1ccc(NC(=O)c2cccc(N(C)C)c2)cc1NC(=O)c1ccc(O)cc1
4. Cc1cc(Nc2cc(CN3CCOCC3)c3nc(C)c(Cc4ccc(Cl)cc4F)n3n2)n[nH]1 [gandotinib]

1: -0.098; 2: -0.452; 3: 0.143; 4: -0.267

# return log2 fold change for each item in the list
1. CC(C)(C)Cn1c(N)nc2ccc(-c3[nH]c(C(C)(C)C)nc3-c3ccc(F)cc3)nc21 [ralimetinib]
2. CO[C@H]1C[C@@H]2CC[C@@H](C)[C@@](O)(O2)C(=O)C(=O)N2CCCC[C@H]2C(=O)O[C@H]([C@H](C)C[C@@H]2CC[C@H](n3cnnn3)[C@H](OC)C2)CC(=O)[C@H](C)/C=C(\C)[C@@H](O)[C@@H](OC)C(=O)[C@H](C)C[C@H](C)/C=C/C=C/C=C/1C [zotarolimus]
3. Cn1c2cc(S(C)=O)sc2c2cnn(Cc3cccc(N)c3)c(=O)c21 (stereo not given)
4. CCCS(=O)(=O)Nc1ccc(F)c(C(=O)c2c[nH]c3ncc(Cl)cc23)c1F
5. CC(C)N(C[C@H]1O[C@@H](n2cnc3c(N)ncnc32)[C@H](O)[C@@H]1O)[C@H]1C[C@@H](CCc2nc3cc(C(C)(C)C)ccc3[nH]2)C1 [pinometostat]
6. Cc1cc(SCc2sc(-c3ccc(C(F)(F)F)cc3)nc2C)ccc1OCC(=O)O
7. CS(=O)(=O)c1ccc(-c2cnc(N)c(C(=O)Nc3ccccc3)n2)cc1
8. CCCc1cc(C)[nH]c(=O)c1CNC(=O)c1cc(-c2ccnc(N3CCN(C)CC3)c2)cc2c1cnn2C(C)C

1: -0.07; 2: -0.483; 3: 0.34; 4: -0.02; 5: -0.008; 6: -0.172; 7: -0.06; 8: -0.662
